# Test system: DeltatarO mutant
# test summary: S. aureus survival, RN4220 and DeltatarO strains – OD600, teichoic acid synthesis inhibitors, primary screen (AID 463173)
# conditions: S. aureus RN4220 wild type/DeltatarO growth, OD600, 18 h, screened at 18.75 µg/mL (by protocol)
Out of some 52,000 compounds screened, about 4,300 (8.3%) were called active. Cut-off read from the data, not from the text of the source: active = survival mostly below about 52% (no sharp cut-off); inactive = mostly above about 56%. The sample as a whole holds a higher share of actives than the screen did.
Labels: active, inactive

>  <molecule>
NS(=O)(=O)c1ccc(CCNC(=O)Cn2c(=O)c3cccn3c3ccc(F)cc32)cc1

>  <classification>
inactive

$$$$
>  <molecule>
O=C(C1CCCN(S(=O)(=O)c2cccc3nsnc23)C1)N1CCN(c2ccccc2Cl)CC1 (stereo not given)

>  <classification>
inactive

$$$$
>  <molecule>
COc1ccccc1CNC(=O)C1CCN(S(=O)(=O)c2c(C)noc2/C=C/c2cccs2)CC1

>  <classification>
inactive

$$$$
>  <molecule>
O=C(CCn1c(=O)c2cccn2c2ccc(F)cc21)NCc1ccccc1F

>  <classification>
active

$$$$
>  <molecule>
Cc1nn2c(=O)cc(CN(C)c3ccccc3)nc2s1

>  <classification>
inactive

$$$$
>  <molecule>
Cc1oc(-c2ccc(Cl)cc2)nc1Cn1c(=O)cc(-c2ccccc2)c2c(C)nn(C)c21

>  <classification>
inactive

$$$$
>  <molecule>
Cn1c(/C(C#N)=C/C2CC=CCC2)nc2ccccc21 (stereo not given)

>  <classification>
inactive

$$$$
>  <molecule>
COc1cc(/C=C(\C#N)c2nc3ccccc3n2C)cc(OC)c1OC

>  <classification>
active

$$$$
>  <molecule>
O=C(CCCn1c(=O)c2cccn2c2ccc(F)cc21)NCCc1ccccc1

>  <classification>
active

$$$$
>  <molecule>
O=C(Cn1c(=O)c2cccn2c2ccccc21)NCCc1ccccc1

>  <classification>
inactive

$$$$

====

# Tested on: DeltatarO mutant
# test summary: S. aureus survival, RN4220 and DeltatarO strains – OD600, teichoic acid synthesis inhibitors, primary screen (AID 463173)
# conditions: S. aureus RN4220 wild type/DeltatarO growth, OD600, 18 h, screened at 18.75 µg/mL (by protocol)
Among all 52,000 compounds or so, about 4,300 (8.3%) were called active. No stated cut-off is given here; in the data, active means survival mostly below about 52% (no sharp cut-off); inactive means mostly above about 56%. The list comes from a sample in which actives are over-represented; it also holds close analogues and randomly drawn compounds.
Labels: active, inactive

>  <molecule>
CCc1ccc(NC(=O)c2cc(S(=O)(=O)N3CCCCC3)c[nH]2)cc1

>  <target under test>
DeltatarO mutant

>  <classification>
inactive

$$$$
>  <molecule>
COc1ccccc1N1CCN(S(=O)(=O)c2ccc(-c3coc(C)n3)cc2)CC1

>  <target under test>
DeltatarO mutant

>  <classification>
inactive

$$$$
>  <molecule>
O=C(CN1CCN(S(=O)(=O)c2cc(Cl)ccc2Cl)CC1)Nc1cccc(F)c1

>  <target under test>
DeltatarO mutant

>  <classification>
inactive

$$$$
>  <molecule>
Cc1ccccc1Cn1c(C(=O)O)c(CNCc2cccc(F)c2)c2ccccc21

>  <target under test>
DeltatarO mutant

>  <classification>
active

$$$$
>  <molecule>
CCN(CC)c1ccc2c(c1)OC(N)=C(C#N)C2c1cccc(F)c1 (stereo not given)

>  <target under test>
DeltatarO mutant

>  <classification>
active

$$$$
>  <molecule>
COc1ccc(-n2nnc(C(=O)Nc3ccccc3F)c2N)cc1

>  <target under test>
DeltatarO mutant

>  <classification>
inactive

$$$$
>  <molecule>
CCOc1ccc(CCNCc2c(C(=O)O)n(Cc3ccc(C)cc3)c3cc(OC)ccc23)cc1

>  <target under test>
DeltatarO mutant

>  <classification>
inactive

$$$$
>  <molecule>
COc1ccc(NC(=O)Cn2nnc(C(=O)Nc3ccc(C)c(F)c3)c2N)cc1Cl

>  <target under test>
DeltatarO mutant

>  <classification>
inactive

$$$$
>  <molecule>
Cc1ccc(NC(=O)Cn2nnc(C(=O)NCCc3ccccc3)c2N)cc1

>  <target under test>
DeltatarO mutant

>  <classification>
inactive

$$$$
>  <molecule>
CCc1ccccc1NC(=O)Cn1nnc(C(=O)NCc2cccc(OC)c2)c1N

>  <target under test>
DeltatarO mutant

>  <classification>
inactive

$$$$

====

# maps each entry to its survival
# System: DeltatarO mutant
# test summary: S. aureus survival, RN4220 and DeltatarO strains – OD600, teichoic acid synthesis inhibitors, primary screen (AID 463173)
# conditions: S. aureus RN4220 wild type/DeltatarO growth, OD600, 18 h, hits give low values, screened at 18.75 µg/mL (by protocol)
Hit rate of the full screen: of about 52,000 compounds, about 4,300 (8.3%) were called active. The entries come from a sample that favours actives as a whole.

>  <smiles data>
COc1ccc(CCNC(=O)c2cn(C)c3ccc(S(=O)(=O)N(C)C)cc3c2=O)cc1OC

>  <survival / %>
84

$$$$
>  <smiles data>
Cc1ccc(CCNC(=O)Cn2nc(C)c3c(C)n(-c4ccc(C)cc4)nc3c2=O)cc1

>  <survival / %>
79

$$$$
>  <smiles data>
CCN(CC)CCNC(=O)Cn1nc(C)c2c(C)n(-c3ccccc3)nc2c1=O

>  <survival / %>
70

$$$$
>  <smiles data>
CCOc1ccc(CCNC(=O)Cn2nc(C)c3c(C)n(-c4ccccc4)nc3c2=O)cc1OCC

>  <survival / %>
25

$$$$
>  <smiles data>
COc1ccc(Nc2ncc3c(n2)CCN(Cc2ccccc2C)C3)c(OC)c1

>  <survival / %>
91

$$$$

====

# System: DeltatarO mutant
# test summary: S. aureus survival, RN4220 and DeltatarO strains – OD600, teichoic acid synthesis inhibitors, primary screen (AID 463173)
# conditions: S. aureus RN4220 wild type/DeltatarO growth, OD600, 18 h, screened at 18.75 µg/mL (by protocol)
The campaign covered roughly 52,000 compounds. About 4,300 (8.3%) were called active. No stated cut-off is given here; in the data, active means survival mostly below about 52% (no sharp cut-off); inactive means mostly above about 56%. This excerpt belongs to a sample that is enriched for actives.
Labels: active, inactive

>  <smiles data>
Cc1ccc(Cl)cc1NC(=O)c1cc(-c2ccc3c(c2)OCCO3)on1

>  <classification>
active

$$$$
>  <smiles data>
Cc1c(Cl)cccc1NC(=O)c1cc(-c2ccc3c(c2)OCO3)on1

>  <classification>
inactive

$$$$
>  <smiles data>
Cc1cc(N2CCOCC2)cc(C)[n+]1[O-]

>  <classification>
inactive

$$$$
>  <smiles data>
O=C(Nc1cccc(Cl)c1)c1cc(-c2ccc3c(c2)OCO3)on1

>  <classification>
inactive

$$$$
>  <smiles data>
O=C(Nc1cccc(Br)c1)c1cc(-c2ccc3c(c2)OCCO3)on1

>  <classification>
inactive

$$$$
>  <smiles data>
O=C(Nc1cccc(Cl)c1)c1cc(-c2ccc3c(c2)OCCO3)on1

>  <classification>
inactive

$$$$

====

# Tested on: DeltatarO mutant
# test summary: S. aureus survival, RN4220 and DeltatarO strains – OD600, teichoic acid synthesis inhibitors, primary screen (AID 463173)
# conditions: S. aureus RN4220 wild type/DeltatarO growth, OD600, 18 h, screened at 18.75 µg/mL (by protocol)
Hit rate of the full screen: of about 52,000 compounds, about 4,300 (8.3%) were called active. No stated cut-off is given here; in the data, active means survival mostly below about 52% (no sharp cut-off); inactive means mostly above about 56%. What follows is part of a selection rich in actives, with near analogues and random picks from the rest.
Labels: t = active, f = inactive

>  <compound>
COc1ccc(-n2nc3c(N4CCCC(C(=O)NCc5ccccc5C)C4)nnc(C)c3c2C)cc1 (stereo not given)

>  <target under test>
DeltatarO mutant

>  <classification>
f

$$$$
>  <compound>
CCn1ccc2cc(S(=O)(=O)N3CCCN(C(=O)Nc4ccc(C)c(F)c4)CC3)ccc21

>  <target under test>
DeltatarO mutant

>  <classification>
f

$$$$
>  <compound>
O=C(CSc1nc(=O)n(Cc2ccncc2)c2c1CCC2)Nc1ccc(F)cc1F

>  <target under test>
DeltatarO mutant

>  <classification>
f

$$$$
>  <compound>
Cc1ccc(C(=O)N2CCCn3c2nc2ccccc23)cc1

>  <target under test>
DeltatarO mutant

>  <classification>
f

$$$$
>  <compound>
CCOc1ccc(C(=O)C(CC(CN2CCOCC2)C(=O)c2ccc(OCC)cc2)CN2CCOCC2)cc1 (stereo not given)

>  <target under test>
DeltatarO mutant

>  <classification>
f

$$$$
>  <compound>
CC1=C(c2ccc(C)cc2)S(=O)(=O)N(Cc2ccc(C(=O)NCc3ccccc3)cc2)C1=O

>  <target under test>
DeltatarO mutant

>  <classification>
f

$$$$
>  <compound>
CC(C)NC(=O)N1[C@H](c2cccs2)[C@@H](C)C(=O)[C@@H](C)[C@@H]1c1cccs1

>  <target under test>
DeltatarO mutant

>  <classification>
f

$$$$
>  <compound>
COc1ccc(OC)c(NC(=O)C2CCN(S(=O)(=O)c3ccc4c(c3)CC(C)N4C(C)=O)CC2)c1 (stereo not given)

>  <target under test>
DeltatarO mutant

>  <classification>
f

$$$$
>  <compound>
Cc1ccc(CNC(=O)c2oc3c(c2C)-c2nn(Cc4ccc(Cl)cc4)cc2CC3)cc1

>  <target under test>
DeltatarO mutant

>  <classification>
f

$$$$
>  <compound>
COc1ccc(OC)c(S(=O)(=O)NCCc2sc(-c3ccc(C)cc3)nc2C)c1

>  <target under test>
DeltatarO mutant

>  <classification>
f

$$$$
>  <compound>
Cc1ccccc1NC(=O)Cn1cc(S(=O)(=O)N2CCCC2)c(S(=O)(=O)N2CCCC2)c1

>  <target under test>
DeltatarO mutant

>  <classification>
f

$$$$
>  <compound>
CCCOC(=O)c1c(NC(=O)c2nc3ncccn3n2)sc(C(=O)OCC)c1C

>  <target under test>
DeltatarO mutant

>  <classification>
f

$$$$
>  <compound>
Cc1cc2cc(CCNS(=O)(=O)c3ccc(Br)cc3)c(=O)[nH]c2cc1C

>  <target under test>
DeltatarO mutant

>  <classification>
f

$$$$
>  <compound>
Cc1cc(Nc2ccc(C)c(C)c2)n2cnnc2n1

>  <target under test>
DeltatarO mutant

>  <classification>
f

$$$$
>  <compound>
COc1cc(Cn2c(=O)sc3ccccc32)ccc1OCCC(C)C

>  <target under test>
DeltatarO mutant

>  <classification>
t

$$$$
>  <compound>
CCCCOc1ccc(Cn2c(=O)sc3ccccc32)cc1OC

>  <target under test>
DeltatarO mutant

>  <classification>
t

$$$$
>  <compound>
O=C(Cn1c(=O)n(-c2ccccc2)c(=O)c2c3c(sc21)CCCC3)Nc1ccc(F)cc1

>  <target under test>
DeltatarO mutant

>  <classification>
f

$$$$
>  <compound>
COc1cc(Cl)c(C)cc1NC(=O)Cn1ncc2c3ccccc3n(Cc3ccccc3)c2c1=O

>  <target under test>
DeltatarO mutant

>  <classification>
f

$$$$
>  <compound>
COc1ccc(CNC(=O)C(C)n2nc(C)c3sc4ccccc4c3c2=O)cc1OC (stereo not given)

>  <target under test>
DeltatarO mutant

>  <classification>
f

$$$$
>  <compound>
CCOC(=O)c1sc2ccccc2c1S(=O)(=O)NCc1ccc(F)cc1

>  <target under test>
DeltatarO mutant

>  <classification>
f

$$$$

Data credit: PubChem BioAssay AID463173
